test system: Vesicular stomatitis virus; experiment: Antiviral activity against Vesicular stomatitis virus infected in EPT cells assessed as inhibition of virus-induced cytopathic effect treated immediately after viral infection measured after 24 hrs; assay type: functional, organism-based
Exercise: for every item that follows, state its recorded pIC50.
Give bare numbers, as −log10 of the molar value.

Working through the 7 molecules below one at a time, give pIC50 for each.
1. CCN(CC)CCn1c2ccccc2c2nc3ccccc3nc21
2. CCCN(CCC)CCn1c2ccccc2c2nc3ccccc3nc21
3. CCCCN(C)CCn1c2ccccc2c2nc3ccccc3nc21
4. CCCCN(CC)CCn1c2ccccc2c2nc3ccccc3nc21
5. c1ccc2nc3c(nc2c1)c1ccccc1n3CCN1CCCC1
6. c1ccc2nc3c(nc2c1)c1ccccc1n3CCN1CCCCCC1
7. CCN(CC)CCOc1ccc2c(c1)C(=O)c1cc(OCCN(CC)CC)ccc1-2.Cl.Cl [TILORONE HYDROCHLORIDE]

5.21
5.18
5.32
4.88
5.39
5.10
4.87

Working through the 3 molecules below one at a time, give pIC50 for each.
1. CN1CCN(CCn2c3ccccc3c3nc4ccccc4nc32)CC1
2. c1ccc2nc3c(nc2c1)c1ccccc1n3CCN1CCCCC1
3. CC1CCCCN1CCn1c2ccccc2c2nc3ccccc3nc21 (configuration not stated)

5.33
5.25
5.39

Working through the 2 molecules below one at a time, give pIC50 for each.
1. CC1CCN(CCn2c3ccccc3c3nc4ccccc4nc32)CC1
2. CN(C)CCn1c2ccccc2c2nc3ccccc3nc21

1: 4.70; 2: 5.02

Ref: ChEMBL document CHEMBL1154890
